Recorded values, source the supplement of paper PMC6555819.

Test system: VDR homodimer (NR concentration 270 nM)
Experiment: PBM binding z-score (relative to random genomic background probes); higher = stronger binding; sequences stand for … in GC…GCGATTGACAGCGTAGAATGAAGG
readout: PBM binding z-score
Please respond with just the number, no unit label.

Study these solved cases before continuing.
// PBM binding z-score value for `TCGAATAGGTTACGGGGGCATTCAGGGATGAAGA` : 3.3

// PBM binding z-score value for `CGAACTAGGTCAAAGGACAGTGATAGGCGACGTA` : 0.324

// PBM binding z-score value for `CGAACTAGGTCAAAGGACGGTGAAAGGCGACGTA` : -0.106

---
// PBM binding z-score value for `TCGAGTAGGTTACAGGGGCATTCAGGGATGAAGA` : 1.42

// PBM binding z-score value for `ATATGTAGGTTACATCCGGGTCTTTCAGGCTATG` : 0.214

// PBM binding z-score value for `CGAACTAGGTAACCAGGACAGTGAAGAGGTTGGA` : -0.193

// PBM binding z-score value for `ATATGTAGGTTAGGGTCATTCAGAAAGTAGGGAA` : 4.01

###

Test system: PPARg:RXRa 30nM:10nM, anti-RXR (NR concentration 30 nM, RXRa partner concentration 10 nM)
Assay: PBM binding z-score (relative to random genomic background probes); higher = stronger binding; sequences stand for … in GC…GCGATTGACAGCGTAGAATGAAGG
readout: PBM binding z-score
Please respond with just the number, no unit label.

// PBM binding z-score value for `CGAACTAGGTTAAAGGACAGTGAAAGGCGACGTA` : 7.49

---
// PBM binding z-score value for `CGAACTAGGTCAATGGACAGTGAAAGGCGACGTA` : 3.76

// PBM binding z-score value for `CCGAGTAGGTTACGAGGGGGCATTCATTGCGAAT` : 1.35

// PBM binding z-score value for `TCGAGTTGGTTACGGGGGCATTCAGGGATGAAGA` : 2.24

###

System: FXR:RXRa (NR concentration 270 nM, RXRa partner concentration 90 nM)
Experiment: PBM binding z-score (relative to random genomic background probes); higher = stronger binding; sequences stand for … in GC…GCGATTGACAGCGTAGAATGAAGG
PBM binding z-score class ranges: bin 0 (below 3), bin 1 (3 to below 4), bin 2 (4 or more)

Pick a category. Item: `CGAACTAGGTCACAAGGACAGTGAAGAGGTTGGA` bin 1

---
Pick a category. Item: `CTAACTAGGTCACGAAAGGTCAAAGTCGAATGAC` bin 2

Pick a category. Item: `CGAACTAGGTCAACAGGACAGTGAAGAGGTTGGA` bin 1

Pick a category. Item: `CGAACTAGGTCACCATGACAGTGAAGAGGTTGGA` bin 1

###

System: RARa homodimer (NR concentration 270 nM)
Assay: PBM binding z-score (relative to random genomic background probes); higher = stronger binding; sequences stand for … in GC…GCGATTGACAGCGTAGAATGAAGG
PBM binding z-score vs 0.5: at or above is 1, below is -1.

Quick check, PBM binding z-score >= 0.5? `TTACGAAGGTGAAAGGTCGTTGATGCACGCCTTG` -1

Quick check, PBM binding z-score >= 0.5? `CGAACTAGGTCAAAGGAGAGTGAAAGGCGACGTA` -1

---
Quick check, PBM binding z-score >= 0.5? `TCTCGGAGGACACGAAGGTCAGCGCTTTCCAGAG` -1

Quick check, PBM binding z-score >= 0.5? `CCGACTGGGGCAACGGTTACCATACTCAGTACGA` -1

Quick check, PBM binding z-score >= 0.5? `AGTCAAAGTTCAGGACGAGATAACGTAAAGCACG` 1

Quick check, PBM binding z-score >= 0.5? `CCGGGTAGGTTACGAGGGGGCATTCAGTGCGAAT` 1
